molecular target: Farnesyl pyrophosphate synthase (Homo sapiens)
Sequence (P14324 whole entry): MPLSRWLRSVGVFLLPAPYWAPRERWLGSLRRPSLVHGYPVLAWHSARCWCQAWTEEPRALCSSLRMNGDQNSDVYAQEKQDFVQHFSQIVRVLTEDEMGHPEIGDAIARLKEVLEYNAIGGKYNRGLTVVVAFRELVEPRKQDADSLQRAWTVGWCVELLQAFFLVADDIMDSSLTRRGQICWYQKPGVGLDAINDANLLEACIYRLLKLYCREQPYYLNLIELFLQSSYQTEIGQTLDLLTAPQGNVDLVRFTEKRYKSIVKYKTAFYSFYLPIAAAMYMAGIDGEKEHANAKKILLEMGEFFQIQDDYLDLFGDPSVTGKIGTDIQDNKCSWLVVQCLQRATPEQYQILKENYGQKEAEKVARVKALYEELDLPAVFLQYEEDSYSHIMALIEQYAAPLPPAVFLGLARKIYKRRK
pKi: −log10 of the molar value.
condition met means recorded pKi is 7 or above; condition not met means it is below 7.

- compound: "Cc1cccnc1NC(P(C)(=O)O)P(=O)(O)O (centres undefined)"
  label_class: "condition not met"
- compound: "Cc1cccnc1NC(P(C)(=O)O)P(C)(=O)O (centres undefined)"
  label_class: "condition not met"
- compound: "O=P(O)(O)C(Cc1cccnc1)P(=O)(O)O"
  label_class: "condition met"
- compound: "C[n+]1cccc(CC(O)(P(=O)(O)O)P(=O)(O)O)c1"
  label_class: "condition not met"
- compound: "O=P(O)(O)OP(=O)(O)O [PYROPHOSPHORIC ACID]"
  label_class: "condition not met"

Query :: Form field: pKi at least 7? Entry: NCCCCC(O)(P(=O)(O)O)P(=O)(O)O
Result :: condition not met

Query :: Test whether the compound O=C(O)C(O)(Cc1cccnc1)P(=O)(O)O (centres undefined) records pKi of 7 or higher.
Result :: condition not met

Query :: // inclusive: pKi at least 7? input: O=P(O)(O)C(Cc1ccccn1)P(=O)(O)O [PIRIDRONIC ACID]
Result :: condition met

Query :: Reported pKi reaches at least 7 for O=P(O)(O)C(O)(Cc1ccccn1)P(=O)(O)O ?
Result :: condition met
